Protocol summary: qHTS assay for small molecule disruptors of the mitochondrial membrane potential - cell viability (AID 720634); note: nearly all actives have a fitted effect of over 20% in size; note: potency is the fitted concentration of half-maximal effect
Protocol conditions: HepG2 viability, ATP luminescence (CellTiter-Glo), 1 h; series mostly up to 83.2 µM
Results filed as inconclusive are left out. The source made the active and inactive calls. Calls come from the whole dose curve.

# Compound, Potency
records = [
    ("CC(=O)OC1(c2ccccc2)CCN(CCc2ccccc2)CC1", "inactive"),
    ("O=C1NCN(c2ccccc2)C12CCN(CC1COc3ccccc3O1)CC2 (centres undefined)", "inactive"),
    ("CN(C)[C@@H]1C(=O)C(C(N)=O)=C(O)[C@@]2(O)C(=O)C3=C(O)c4c(O)ccc(Cl)c4[C@@](C)(O)[C@H]3C[C@@H]12", "inactive"),
    ("CCN", "inactive"),
    ("CCCCCCCCCCCCCCCC[N+](C)(C)C", "inactive"),
    ("ClC1=C(Cl)C2(Cl)C3C(Cl)C=CC3C1(Cl)C2(Cl)Cl (centres undefined)", "inactive"),
    ("CC(=O)C(Cl)(Cl)Cl", "0.209 µM (active)"),
    ("CCCN(CCC)c1c([N+](=O)[O-])cc(S(N)(=O)=O)cc1[N+](=O)[O-]", "32.7 µM (active)"),
    ("Cc1c(Cl)c(=O)oc2cc(OP(=O)(OCCCl)OCCCl)ccc12", "inactive"),
    ("COc1cc(N)c(Cl)cc1C(=O)NC1CN2CCC1CC2 (centres undefined)", "inactive"),
    ("BrCBr", "inactive"),
    ("CCCN(CC)CC1COC2(CCC(C(C)(C)C)CC2)O1 (centres undefined)", "inactive"),
    ("CCCCCCCCCCCCCC[P+](CCCCCC)(CCCCCC)CCCCCC (tested in a mixture with another compound)", "24.3 µM (active)"),
    ("CS(=O)(=O)c1ccc(C(=O)C2C(=O)CCCC2=O)c([N+](=O)[O-])c1", "inactive"),
    ("Fc1cccc(Cl)c1CCl", "inactive"),
    ("CCOC(=O)OC1=C(c2cc(C)ccc2C)C(=O)NC12CCC(OC)CC2 (centres undefined)", "10.9 µM (active)"),
    ("C=CCC1=C(C)C(OC(=O)C2C(C=C(C)C)C2(C)C)CC1=O (centres undefined)", "11.5 µM (active)"),
    ("CC(C)CCCCCOC(=O)c1ccccc1C(=O)OCCCCCC(C)C", "inactive"),
    ("NNC(=O)c1ccccc1", "inactive"),
    ("C[C@]12CC[C@H]3[C@@H](CCC4=CC(=O)CC[C@@]43C)[C@@H]1CC[C@@H]2O", "inactive"),
    ("COc1ccc(/C(=C/C(=O)N2CCOCC2)c2ccc(Cl)cc2)cc1OC", "inactive"),
    ("CC(C)Oc1cccc(NC(=O)c2ccccc2C(F)(F)F)c1", "30.6 µM (active)"),
    ("CCCCCCCCc1ccc(O)cc1", "15.4 µM (active)"),
    ("S=C(SSC(=S)N1CCCCC1)N1CCCCC1", "inactive"),
]

====

Experimental target: Aromatase (Homo sapiens)
Protocol summary: qHTS assay to identify aromatase inhibitors (AID 743083); note: nearly all actives have a fitted effect of over 55% in size
Protocol conditions: MCF-7 aro ERE, testosterone-driven ERE luciferase, 24 h; series mostly up to 70.3 µM
Inconclusive results are not listed. Activity calls are given as the source filed them. Calls come from the whole dose curve; as a rule, active = well fitted inhibition curve with a large enough effect in the repeat runs; inconclusive = weak or mixed curves; inactive = no such curve, though single readings can be large or run the other way.
Classes used: true (1) for active, false (0) for inactive

# Molecule, Assigned class
records = [
    ("N#CCCC(Br)(C#N)CBr (configuration not stated)", "true (1)"),
    ("OC(c1ccc(Cl)cc1)(c1ccc(Cl)cc1)C(Cl)(Cl)Cl", "true (1)"),
    ("O=C(CBr)c1ccc(O)cc1", "false (0)"),
    ("O=C(O)c1cc[c]([Hg][Cl])cc1", "true (1)"),
    ("CC1(C)[C@H](C(=O)O[C@H](C#N)c2cccc(Oc3ccccc3)c2)[C@@H]1/C=C(\\Cl)C(F)(F)F", "false (0)"),
    ("S=C=Nc1cccc2ccccc12", "true (1)"),
    ("C[C@@H]1CC[C@@]2(OC1)O[C@H]1[C@@H](O)[C@H]3[C@@H]4CC[C@H]5C[C@@H](O[C@@H]6O[C@H](CO)[C@H](O[C@@H]7O[C@H](CO)[C@@H](O)[C@H](O[C@@H]8OC[C@@H](O)[C@H](O)[C@H]8O)[C@H]7O[C@@H]7O[C@H](CO)[C@@H](O)[C@H](O[C@@H]8O[C@H](CO)[C@@H](O)[C@H](O)[C@H]8O)[C@H]7O)[C@H](O)[C@H]6O)[C@H](O)C[C@]5(C)[C@H]4CC[C@]3(C)[C@H]1[C@@H]2C", "true (1)"),
    ("CCCCCCCCCCCCCCC(Br)C(=O)O (configuration not stated)", "false (0)"),
    ("CCOCCOC(C)=O", "false (0)"),
    ("O=[N+]([O-])c1ccc(Oc2ccc(C(F)(F)F)cc2[N+](=O)[O-])cc1", "false (0)"),
    ("CCCCCCCCCCCCCCCC[n+]1ccccc1", "true (1)"),
    ("Clc1ccc(CO/N=C(\\Cn2ccnc2)c2ccc(Cl)cc2Cl)c(Cl)c1", "true (1)"),
    ("C=CC(=O)OCC(COC(=O)C=C)(COC(=O)C=C)COC(=O)C=C", "true (1)"),
    ("CC(=O)c1cc(C(C)(C)C)cc2c1CCC2(C)C", "true (1)"),
    ("CCOC(=O)OC1=C(c2cc(C)ccc2C)C(=O)NC12CCC(OC)CC2 (configuration not stated)", "false (0)"),
    ("Cc1cc(N=Nc2ccccc2C)ccc1N", "false (0)"),
    ("CCCN(CCC)CCc1c[nH]c2ccccc12", "false (0)"),
    ("COP(=O)(OC)SCn1c(=O)oc2cc(Cl)cnc21", "true (1)"),
    ("N#CNC#N", "false (0)"),
    ("O=[N+]([O-])c1c2ccccc2cc2ccccc12", "false (0)"),
    ("CC(C)CCCCCCCOP(=O)(Oc1ccccc1)Oc1ccccc1", "false (0)"),
    ("C[C@H]1O[C@@H](O[C@H]2[C@@H](O)C[C@H](O[C@H]3[C@@H](O)C[C@H](O[C@H]4CC[C@@]5(C)[C@H](CC[C@@H]6[C@@H]5CC[C@]5(C)[C@@H](C7=CC(=O)OC7)CC[C@]65O)C4)O[C@@H]3C)O[C@@H]2C)C[C@H](O)[C@@H]1O", "false (0)"),
]

====

Protocol summary: qHTS assay for small molecule activators of the heat shock response signaling pathway (AID 743210);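 note: HeLa cells with beta-lactamase reporter driven by heat shock elements; % is set by controls: 0 for no effect and ±100 for the full control effect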
Protocol conditions: HeLa HSE-bla reporter, beta-lactamase ratio, 5 h; series mostly up to 62.6 µM
Records with an inconclusive call do not appear. Activity calls are given as the source filed them. The call rests on the fitted dose curve; in most records, active means well fitted activation curve with a large enough effect in the signal ratio in the repeat runs, with a control signal flat (not every such curve was filed as active); inconclusive means weak or mixed curves; inactive means flat fitted curve, though single readings scatter; the % refers to the signal ratio.
Value kind: outcome

# Compound, Value kind, Obs value
measured = [
    ("Cc1cc(C(C)(C)c2cc(C)c(O)c(C)c2)cc(C)c1O", "outcome", "inactive"),
    ("O=[N+]([O-])c1ccc(Oc2ccc(C(F)(F)F)cc2[N+](=O)[O-])cc1", "outcome", "inactive"),
    ("CC(C)(C)c1ccc(CSc2cnn(C(C)(C)C)c(=O)c2Cl)cc1", "outcome", "inactive"),
    ("COc1cc(C=O)cc2c1[C@H](COC(N)=O)[C@]1(OC(C)=O)ON2C[C@H]2[C@@H]1N2C(C)=O", "outcome", "inactive"),
    ("CCOC(=O)OC1=C(c2cc(C)ccc2C)C(=O)NC12CCC(OC)CC2 (centres undefined)", "outcome", "inactive"),
    ("C[C@@H]1O[C@@H](O[C@H]2C[C@@H](O)[C@]3(CO)[C@H]4[C@H](O)C[C@]5(C)[C@@H](C6=CC(=O)OC6)CC[C@]5(O)[C@@H]4CC[C@]3(O)C2)[C@H](O)[C@H](O)[C@H]1O", "outcome", "inactive"),
    ("COc1ccc(OC)c(CC(C)N)c1 (centres undefined)", "outcome", "inactive"),
    ("CC(C)CCCCCOC(=O)c1ccccc1C(=O)OCCCCCC(C)C", "outcome", "inactive"),
    ("CCOP(=S)(OCC)OC(Cl)C(Cl)(Cl)Cl (centres undefined)", "outcome", "inactive"),
]

====

Protocol summary: qHTS RealTime-Glo MT Cell Viability Assay in HepG2 cells - 32 hour (AID 1224877); note: nearly all actives have a fitted effect of over 55% in size
Protocol conditions: RealTime-Glo luminescence; series mostly up to 76.8 µM
Inconclusive results are not listed. Calls of active or inactive are those of the source. The call rests on the fitted dose curve; in most records, active means well fitted cell-killing curve with a large enough effect in the repeat runs; inconclusive means weak or mixed curves; inactive means flat fitted curve, though single readings scatter.
Classes used: active, inactive

# Compound, Assigned class
rows = [
    ("CC(=O)OC1(c2ccccc2)CCN(CCc2ccccc2)CC1", "inactive"),
    ("CNC(C)Cc1ccc2c(c1)OCO2 (stereo not given)", "inactive"),
    ("Cc1cc(Cl)ccc1O[C@H](C)C(=O)O", "inactive"),
    ("CC(=O)C(Cl)(Cl)Cl", "inactive"),
    ("COc1ccc(OC)c(CC(C)N)c1 (stereo not given)", "inactive"),
    ("C[C@]12CC[C@@H]3c4ccc(OC(=O)N(CCCl)CCCl)cc4CC[C@H]3[C@@H]1CC[C@@H]2O", "inactive"),
    ("CC(C)CCCCCCCOP(=O)(Oc1ccccc1)Oc1ccccc1", "inactive"),
    ("ClC(Cl)=C(Cl)Cl", "inactive"),
    ("CCc1cc(C)cc(CC)c1-c1c(OC(=O)C(C)(C)C)n2n(c1=O)CCOCC2", "inactive"),
    ("CCOP(=S)(OCC)SCCS(=O)(=O)CC", "inactive"),
    ("O=C(CBr)c1ccc(O)cc1", "inactive"),
    ("CC(C)CC(C)(c1ccc(O)cc1)c1ccc(O)cc1", "inactive"),
    ("Cc1cc(N=Nc2ccccc2C)ccc1N", "inactive"),
    ("CCCCCCCCCCCCCN1CC(C)OC(C)C1 (stereo not given)", "inactive"),
    ("O=C(O)c1cc[c]([Hg][Cl])cc1", "active"),
    ("CCC(C)(C)C(=O)OC1=C(c2ccc(Cl)cc2Cl)C(=O)OC12CCCCC2", "inactive"),
    ("C[C@]12Cc3nonc3C[C@@H]1CC[C@@H]1[C@@H]2CC[C@@]2(C)[C@H]1CC[C@]2(C)O", "inactive"),
    ("Cc1c(Cl)c(=O)oc2cc(OP(=O)(OCCCl)OCCCl)ccc12", "inactive"),
    ("CC(C)C(=O)Cl", "inactive"),
    ("CC(C)Oc1cccc(NC(=O)c2ccccc2C(F)(F)F)c1", "inactive"),
    ("BrCC(Br)c1ccccc1 (stereo not given)", "inactive"),
    ("ClC1=C(Cl)[C@]2(Cl)[C@H]3[C@H]([C@H]4C=C[C@H]3C4)[C@@]1(Cl)C2(Cl)Cl", "inactive"),
    ("CC(C)[C@H](C(=O)OC(C#N)c1cccc(Oc2ccccc2)c1)c1ccc(OC(F)F)cc1 (stereo not given in full)", "inactive"),
    ("CCC(C)c1cc(C(C)(C)C)cc(-n2nc3ccccc3n2)c1O (stereo not given)", "inactive"),
    ("CCOC(=O)OC1=C(c2cc(C)ccc2C)C(=O)NC12CCC(OC)CC2 (stereo not given)", "inactive"),
]
